# System: KM12 colon
# assay.remarks: NCI-60 one-dose screen, 48 h (100 = growth as untreated, 0 = no growth, -100 = all killed)
# experimental.parameters: 10 µM unless noted
# Experimental: Growth inhibition of the KM12 human tumor cell line is measured as a screen for anti-cancer activity. Cells are grown in 96 well plates and exposed to the test compound for 48 hours. Compounds are tested at a single concentration, which is 10^-5 M for most compounds. The reported endpoint is percent growth (GI% or GIPRCNT), where numbers from 0 - 100% represent growth inhibition, and numbers from -100% - 0 represent cell death. For example, a value of 40 represents 60% growth inhibition. […]
Compounds without any hit were thinned out: in the full panel of roughly 83,000, 20% have a hit.
Note to self: growth under 30% means Satisfied, ties and anything higher get Not satisfied.

Example results:
molecule=COc1cc2c(cc1OC)-c1ccc3cc4c(cc3c1N(CCCn1ccnc1)C2)OCO4 assigned_class="Not satisfied"
molecule=COc1ccc(-c2nnc(SCC(=O)NC3=NN=C(c4ccccc4)CS3)o2)cc1 assigned_class="Not satisfied"
molecule=Cc1nc(Nc2ccc(NC(=S)Nc3ccccc3)cc2)nc2nc(Nc3ccc(S(=O)(=O)O)cc3)[nH]c(=O)c12 assigned_class="Not satisfied"
molecule=CC(=O)Nc1ccc2c(c1)Cc1c(F)cccc1-2 assigned_class="Not satisfied"
molecule=CCCCS(=O)(=O)Oc1ccc(-c2nc(C)c(C(=O)OCC)s2)cc1C=O assigned_class="Not satisfied"
molecule=COc1cc(/C=C/c2nc(Nc3ccc(S(=O)(=O)Nc4cc(C)on4)cc3)c3ccccc3n2)ccc1O assigned_class="Not satisfied"
molecule="C=C(C=O)C1CCC2(C(=O)O)CCC3(C)C(CCC4C5(C)CCC(O)C(C)(C)C5CCC43C)C12 (stereo not given)" assigned_class=Satisfied
molecule=Cc1ccc(Nc2ccc(Nc3ccc(C)cc3S(=O)(=O)O)c3c2C(=O)c2ccccc2C3=O)c(S(=O)(=O)O)c1 assigned_class="Not satisfied"

Threshold test, growth < 30%: O=C1c2ccccc2C(=O)c2cc(Cn3cc[n+](Cc4ccc5ccccc5c4)c3)ccc21 Not satisfied

Threshold test, growth < 30%: COc1ccc(N(C)c2nc(Cl)nc3cnn(C)c23)cc1 Satisfied

Threshold test, growth < 30%: Nc1c(C(=O)c2ccc(Cl)s2)sc2nc3c(cc12)CCCC3 Not satisfied

Threshold test, growth < 30%: CCOC(=O)Cc1csc2nc(-c3ccccc3)nn12 Not satisfied

###

# System: HOP-92 NSCLC
# assay.remarks: NCI-60 one-dose screen, 48 h
# experimental.parameters: 10 µM unless noted
Compounds without any hit were thinned out: in the full panel of roughly 83,000, 20% have a hit. Calls of active or inactive are those of the source. Rule for the calls: active = growth percent below 10; inactive = the rest.
Lab note: assign the record to one of active, inactive

Example results:
molecule=O=C(CCCCCCCn1cc(-c2cccnc2)nn1)Nc1ccccc1-c1ccccc1 study_system="HOP-92 NSCLC" assigned_class=inactive
molecule="COc1ccc(-n2sc(=O)n(Cc3ccc(COC(=O)C(C)c4ccc(CC(C)C)cc4)cc3)c2=O)cc1 (stereo not drawn)" study_system="HOP-92 NSCLC" assigned_class=inactive
molecule=CN(C)c1ccc2cc(-c3ccc(Cl)c(Cl)c3)c(N)nc2c1 study_system="HOP-92 NSCLC" assigned_class=inactive
molecule=O=C1Nc2ccc(Cl)cc2/C1=N/N=C/c1c[nH]c2ccccc12 study_system="HOP-92 NSCLC" assigned_class=inactive
molecule=O=C1c2ccccc2C(=O)c2cc(Cn3cc[n+](Cc4ccc5ccccc5c4)c3)ccc21 study_system="HOP-92 NSCLC" assigned_class=inactive
molecule=COc1cc2oc(-c3cccc(C(=O)Nc4ccc(C#N)cc4)c3)cc(=O)c2c(O)c1OC study_system="HOP-92 NSCLC" assigned_class=inactive

Recorded call for C=C1C(=O)O[C@H]2[C@H]1CC/C(COC(=O)/C=C\C(=O)NCc1ccc(Cn3c(=O)sn(CCCI)c3=O)cc1)=C\CC[C@@]1(C)O[C@@H]21 ? active

Recorded call for Cc1ccc(O)c(C(=O)c2ccccc2Cl)c1 ? inactive

Recorded call for Cc1cc(C)on1 ? inactive

Recorded call for O=[N+]([O-])c1ccc(-c2cc3c(Nc4ccc(Cl)c(C(F)(F)F)c4)ncnc3s2)cc1 ? active

Recorded call for CCNCCNc1cc(-c2ccc(C#N)cc2)c(C#N)c2nc3ccccc3n12 ? inactive

Recorded call for NC(N)=N/N=C/c1ccc(Br)cc1 ? inactive

Recorded call for NC(N)=N/N=C(/c1ccccc1)c1ccccc1F ? inactive

Recorded call for CC(c1ccc(-n2cccn2)cc1)c1cnc(N2CCc3ccc(C(N)=O)cc3C2)s1 (stereo not drawn) ? inactive

Recorded call for CC1(C)N=C(N)N=C(N)N1c1ccc(Cl)c(Cl)c1 ? inactive

Recorded call for CN(C)c1ccc(/C=C/c2c(F)cccc2F)cc1 ? inactive
